B1: RPS21 (parent)
chain: AEVSWEPGRREGCDICAGKAGCPI

- Variants of: B1
- ASSAY_REMARKS: protein stability index of a GFP-peptide fusion (GPS, HEK-293T) (PSI 1-6); higher = more stable;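 note: lentivirally expressed fusions sorted by FACS into six bins by GFP to DsRed ratio, PSI derived from sequencing read proportions per bin multiplied by bin number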
- CONDITION_LABEL: c terminus: a fixed tail appended
The entries below come with measured protein stability index values attached.
Please reply with the number alone, leaving off any unit.

[[record]]
variant_id = "P23H"
assay_result = 2.61

[[record]]
variant_id = "A20E"
assay_result = 2.36

[[record]]
variant_id = "W5P"
assay_result = 5.67


Reported protein stability index for I15M : what is it?
3.42

Reported protein stability index for G12M : what is it?
4.41

Reported protein stability index for A17G : what is it?
3.38

Reported protein stability index for K19M : what is it?
2.48

Reported protein stability index for I24S : what is it?
3.79

Reported protein stability index for E11K : what is it?
2.6

Reported protein stability index for S4T : what is it?
2.54

Reported protein stability index for G8N : what is it?
3.41

Reported protein stability index for A1K : what is it?
2.67

Reported protein stability index for C13D : what is it?
4.06
